# measured_target: Amyloid-beta precursor protein (Homo sapiens, UniProt P05067)
# Sequence (P05067 whole entry): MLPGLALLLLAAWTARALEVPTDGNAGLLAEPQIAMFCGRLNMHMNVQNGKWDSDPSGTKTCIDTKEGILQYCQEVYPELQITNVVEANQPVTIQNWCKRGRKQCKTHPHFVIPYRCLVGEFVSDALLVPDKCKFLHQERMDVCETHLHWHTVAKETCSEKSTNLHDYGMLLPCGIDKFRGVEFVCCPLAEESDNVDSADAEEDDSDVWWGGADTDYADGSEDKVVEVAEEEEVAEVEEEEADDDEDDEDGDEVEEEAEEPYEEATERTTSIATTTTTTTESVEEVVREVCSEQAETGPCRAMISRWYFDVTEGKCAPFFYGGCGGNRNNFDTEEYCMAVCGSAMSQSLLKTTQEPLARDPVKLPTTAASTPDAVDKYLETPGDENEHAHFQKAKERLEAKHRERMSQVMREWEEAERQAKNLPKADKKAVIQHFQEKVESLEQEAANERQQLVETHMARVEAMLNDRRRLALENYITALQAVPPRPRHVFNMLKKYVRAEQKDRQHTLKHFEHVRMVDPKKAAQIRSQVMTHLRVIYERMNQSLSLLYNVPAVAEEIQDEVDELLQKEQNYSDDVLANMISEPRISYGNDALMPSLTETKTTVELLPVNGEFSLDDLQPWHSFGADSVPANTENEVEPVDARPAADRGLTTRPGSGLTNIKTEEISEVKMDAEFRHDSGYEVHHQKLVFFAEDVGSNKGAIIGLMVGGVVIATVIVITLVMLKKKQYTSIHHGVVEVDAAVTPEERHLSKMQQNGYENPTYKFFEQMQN
# experiment_notes: Binding affinity to Amyloid beta (1 to 42) aggregates (unknown origin)

structure_smiles: Cc1cc(/C=C/c2ccc(N(C)C)s2)n2c1C=C1C=CC=[N+]1[B-]2(F)F
Kd, nM: 55

====

# measured_target: Amyloid-beta precursor protein (Homo sapiens)
# experiment_notes: Binding affinity to Amyloid beta (1 to 42) aggregates (unknown origin) assessed as fluorescent intensities measured after 30 mins by fluorescence spectrometry

structure_smiles: CC1=CC(C)=[N+]2C1=C(CCCO)c1c(C)cc(/C=C/c3cnc(N(C)C)s3)n1[B-]2(F)F
Kd (nM): 78.1
//
structure_smiles: CC1=CC(C)=[N+]2C1=C(CCCN1CCNc3ccccc31)c1c(C)cc(/C=C/c3ccc(N(C)C)s3)n1[B-]2(F)F
Kd (nM): 27
